assay: A CellTox Green Cytotoxicity Assay to monitor cytotoxicity in HepG2 cells - 24 hour (AID 1224878); conditions: CellTox Green fluorescence; series mostly up to 76.8 µM; further: nearly all actives have a fitted effect of over 45% in size
Records with an inconclusive call do not appear. Calls of active or inactive are those of the source. The call rests on the fitted dose curve; in most records, active means well fitted activation curve with a large enough effect in the repeat runs; inconclusive means weak or mixed curves; inactive means flat fitted curve, though single readings scatter.
Classes to choose from: active, inactive

Solved entries (count: 5):
compound | class-assignment
CC(O)(P(=O)(O)O)P(=O)(O)O | inactive
CN1[C@@H]2CC(OC(=O)[C@H](CO)c3ccccc3)C[C@H]1[C@@H]1O[C@@H]12 (stereo partly specified) | inactive
C[C@](N)(Cc1ccc(O)c(O)c1)C(=O)O | inactive
CN(C)CCOC(C)(c1ccccc1)c1ccccn1 (stereo unspecified) | inactive
NC(=O)n1c(O)c(C(=O)c2cccs2)c2cc(Cl)ccc21 | inactive

Tell me the assay call for CC(=O)C(=O)O please.
inactive

For CC(=O)CCC(=O)O , what call appears in the results of this test?
inactive
